Entries and their Phage binding ELISA, Anti-CD28 Fab signal in the presence of CD28
# EXPERIMENTAL_SYSTEM: T1, Anti-CD28 Fab (SEQ ID NOs: 696, 697)
# T1 construct: In the phage ELISA the Fab was biotinylated and captured on neutravidin coated plates
# T1 sequence (VH, as listed by the source, chain 1 of 2): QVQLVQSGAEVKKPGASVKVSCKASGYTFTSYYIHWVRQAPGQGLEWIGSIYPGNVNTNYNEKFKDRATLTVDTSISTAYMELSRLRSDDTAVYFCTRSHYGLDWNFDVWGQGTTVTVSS
# T1 sequence (VL, as listed by the source, chain 2 of 2): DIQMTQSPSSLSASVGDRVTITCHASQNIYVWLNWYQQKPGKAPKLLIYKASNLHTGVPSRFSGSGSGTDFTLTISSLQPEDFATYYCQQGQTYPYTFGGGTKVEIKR
# TEST_METHOD_NOTES: phage ELISA on captured anti-CD28 Fab; wells pre-incubated with CD28 antigen as competitor;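 also: clonal phage from crude supernatants added to wells pretreated with blocking buffer with or without CD28, bound phage read by ELISA with HRP-conjugated anti-M13 antibody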
OUTCOME_MEASURE: Phage binding ELISA, Anti-CD28 Fab signal in the presence of CD28

[[record]]
binder = "SCSAGATYQWPYCF [Phage-1623]"
value_reported = 0.06

[[record]]
binder = "TCSAGATYKWPACF [Phage-1619]"
value_reported = 0.05

[[record]]
binder = "TCADGAFWQWPVCL [Phage-1631]"
value_reported = 0.07

[[record]]
binder = "SCAAGATYSWPACL [Phage-1624]"
value_reported = 0.07

[[record]]
binder = "SCAAGATWKWPECL [Phage-1628]"
value_reported = 0.07

[[record]]
binder = "TCSAGASWGWPWCL [Phage-1632]"
value_reported = 0.07

[[record]]
binder = "TCAAGATYMWPVCL [Phage-1627]"
value_reported = 0.07

[[record]]
binder = "NCSAGATWPWPMCF [Phage-1622]"
value_reported = 0.06

